pIC50: −log10 of the molar value.
Kindly find below pIC50 information for HPK1 (Homo sapiens (Human), UniProt Q92918) taken from the literature.

Example entries begin here.
Give its pIC50 value. Item: Cc1c(-c2cc3nc(Nc4cc5c(cc4Cl)CCN(C)C5)ncc3c(N)c2F)cnc2c1NCCO2
9.11

Give its pIC50 value. Item: Cc1cnc2[nH]cc(-c3ccc(Nc4ccc(N5CCN(C)CC5)cn4)c4c3CNC4=O)c2c1
6.00 to 7.00

Count: 2. Required value per item: pIC50.
1. C/C(Nc1cc(C)n(C(F)F)n1)=C1/C(=O)Nc2cnc(-c3cc(F)ccc3C)cc21
2. N#Cc1ccn2c(-c3ccc(Nc4ccc(N5CCC(O)CC5)cn4)c4c3CNC4=O)cnc2c1

1: > 7.30; 2: > 7.00

* * *

Kindly find below IC50 information for UniProt:Q92918 taken from the literature.

Example entries begin here.
Give its IC50 value. Item: COc1cc2c(cc1Nc1ncc(C(N)=O)c(Nc3ccccc3Br)n1)CN(C1CC(CO)C1)CC2 (single isomer, unassigned)
0.33 nM

Give its IC50 value. Item: C[C@H]1CN(c2c(NC(=O)c3ccc(=O)n(-c4c(F)cccc4F)n3)ccc3c2cnn3C)C[C@@H]1N
< 100 nM

Give its IC50 value. Item: O=C1NCc2c(-c3cnc4cc(F)ccn34)ccc(Nc3ccc(N4CCOC[C@@H](O)C4)cn3)c21
< 100 nM

Let us examine a further case.
Give its IC50 value. Item: CN1CCN(c2ccc(Nc3ccc(-c4ccccn4)c4c3C(=O)NC4)nc2)CC1
< 1000 nM

* * *

Kindly find below pIC50 information for UniProt Q92918 taken from the literature.
pIC50: −log10 of the molar value.

Example entries begin here.
Identify the measured pIC50 of Cc1c(-c2cc3nc(Nc4ccccc4F)ncc3c(N)c2F)cnc2c1NCCO2 for UniProt Q92918.
9.16

Identify the measured pIC50 of CCn1ccc(Nc2cc(-c3cc(OC)c(C(=O)N4CCCCC4)cc3F)nc3cc[nH]c(=O)c23)nc1=O for UniProt Q92918.
≥ 7.00

Identify the measured pIC50 of CC(C)c1nc2c(N3CC[C@H](N)C3)c(NC(=O)c3ccnn(-c4c(F)cccc4F)c3=O)ccc2n1C for UniProt Q92918.
> 7.00

Identify the measured pIC50 of Cc1cc(-c2ccc(Nc3ccc(N4CCNCC4)cn3)c3c2CNC3=O)c2ccn(C)c2n1 for UniProt Q92918.
6.00 to 7.00

Identify the measured pIC50 of Cn1cnc2nccc(-c3ccc(Nc4ccc(N5CCNCC5)cn4)c4c3CNC4=O)c21 for UniProt Q92918.
< 6.00

Count: 6. Required value per item: pIC50.
1. COc1cccc(F)c1-c1cccc(C(=O)Nc2ccc3nn(C)cc3c2N2C[C@H]3C[C@@H]2CN3)[n+]1[O-]
2. C/C(Nc1cnn(C)c1)=C1/C(=O)Nc2cnc(-c3cccnc3C)cc21
3. CC1(O)CCN(c2ccc(Nc3ccc(-c4cnc5cc(F)ccn45)c4c3C(=O)NC4)nc2)CC1
4. COCC1(c2ccc(Nc3ccc(-c4cnc5cc(F)ccn45)c4c3C(=O)NC4)nc2CN(C)C)CCOC1 (stereo not shown)
5. COc1cccc(F)c1-n1nc2c(-c3ccc4c(c3)CCN(C)C4)n[nH]c2cc1=O
6. O=c1[nH]ccc2nc(-c3cnc4ccccn34)cc(Nc3ccc(N4CCC(O)CC4)cn3)c12

> 7.00
6.30 to 7.00
> 7.00
> 7.00
6.30 to 7.30
< 6.00

Count: 5. Required value per item: pIC50.
1. CC(C)n1ncc2c(N3CCC(N)CC3)c(NC(=O)c3ccc(=O)n(-c4c(F)cccc4F)n3)cc(F)c21
2. CC(C)(c1ccc(Nc2ncc(C(N)=O)c(Nc3cccc4c3CCNC4=O)n2)cc1)S(C)(=O)=O
3. CN1CCN(c2nc(Nc3ccc(-c4cnc5cc(F)ccn45)c4c3C(=O)NC4)ccc2[C@H]2CCOC2)CC1
4. CN1CCN(c2ccc(Nc3cnc(-c4cnc5n4CCC5)c4c3C(=O)NC4)nc2)CC1
5. CN1CCN2c3ccc(-c4cnc5[nH]cc(-c6ccc(C(=O)N7CC(N(C)C)C7)cc6)c5n4)cc3OCC2C1 (stereo not shown)

["> 7.00", 9.29, "> 7.00", "6.00 to 7.00", "≥ 8.00"]
